target: recombinant human BACE-1 (Homo sapiens (Human), UniProt P56817); test: Beta-secretase (BACE) inhibition assay, fluorogenic enzymatic assay; format: biochemical
Sequence (P56817 46-501): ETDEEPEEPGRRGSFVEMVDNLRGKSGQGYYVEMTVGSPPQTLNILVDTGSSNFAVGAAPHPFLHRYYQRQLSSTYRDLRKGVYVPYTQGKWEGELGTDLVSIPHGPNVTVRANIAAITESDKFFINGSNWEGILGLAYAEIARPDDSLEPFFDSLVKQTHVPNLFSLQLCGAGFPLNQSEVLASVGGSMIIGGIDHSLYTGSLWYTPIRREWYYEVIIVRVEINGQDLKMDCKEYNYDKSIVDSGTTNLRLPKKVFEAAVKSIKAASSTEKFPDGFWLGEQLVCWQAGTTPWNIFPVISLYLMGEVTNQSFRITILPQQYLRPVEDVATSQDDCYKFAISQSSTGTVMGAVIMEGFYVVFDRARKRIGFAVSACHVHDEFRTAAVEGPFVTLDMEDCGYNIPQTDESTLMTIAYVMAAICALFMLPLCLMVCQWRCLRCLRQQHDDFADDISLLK
Reported Metric: IC50

Bench note, recombinant human BACE-1 (Homo sapiens (Human), UniProt P56817): entry `CC(C)(C)C[C@]1(c2ccc(-c3cnn(C(F)F)c3)cc2)NC(=N)N([C@H](COC(=O)NC2(C(F)(F)F)CC2)c2ccc(Cl)c(-c3ncnn3C(F)F)c2)C1=O` , its IC50 = > 100 µM

Bench note, recombinant human BACE-1 (Homo sapiens (Human), UniProt P56817): entry `Cn1c(=O)ccc2cc([C@@]3(CC(C)(C)C)NC(=N)N([C@H](COC(=O)NC4(C(F)(F)F)CC4)c4ccc(Cl)c(-n5ncnc5C(F)F)c4)C3=O)ccc21` , its IC50 = > 100 µM

Bench note, recombinant human BACE-1 (Homo sapiens (Human), UniProt P56817): entry `CC(C)(C)C[C@]1(c2ccc(-c3cnn(C(F)F)c3)cc2F)NC(=N)N([C@H](COC(=O)NC2(C(F)(F)F)CC2)c2ccc(Cl)c(-n3ncnc3C(F)F)c2)C1=O` , its IC50 = > 100 µM

* * *

experiment: Liver microsomal stability, human liver microsomes; details: human, human liver microsomes
Reported Metric: half-life at 1 uM

Reported half-life at 1 uM of `CC(C)(C)C[C@]1(c2ccc(-n3ccnn3)cc2)NC(=N)N([C@H](COC(=O)NC2(C(F)(F)F)CC2)c2ccc(Cl)c(-n3ncnc3C(F)F)c2)C1=O` : ≥ 6.58 h

* * *

assay: Liver microsomal stability, human liver microsomes; details: human, liver microsomes
Reported Metric: half-life at 1 uM

Previously resolved entries follow.
CC(C)(C)C[C@]1(c2ccc(-c3cnn(C(F)F)c3)cc2F)NC(=N)N([C@H](COC(=O)NC2(C(F)(F)F)CC2)c2ccc(Cl)c(-c3ncn[nH]3)c2)C1=O = ≥ 6.58 h
CC(C)(C)C[C@]1(c2ccc(-c3cnn(S(C)(=O)=O)c3)c(F)c2)NC(=N)N([C@H](COC(=O)NC2(C(F)(F)F)CC2)c2ccc(Cl)c(-n3ncnc3C(F)F)c2)C1=O = ≥ 6.58 h

Please look at the following compound next.
Reported half-life at 1 uM of `CC(C)(C)C[C@]1(c2ccc(-c3cnn(C4CC4)n3)cc2F)NC(=N)N([C@H](COC(=O)NC2(C(F)(F)F)CC2)c2ccc(Cl)c(-n3ncnc3C(F)F)c2)C1=O` : ≥ 6.58 h

* * *

test: in vitro; settings: human, microsomes
Reported Metric: half-life at 1 uM

Reported half-life at 1 uM of CC(C)(C)C[C@]1(c2ccc(-c3cnn(C(F)F)c3)cc2)NC(=N)N([C@H](COC(=O)NC2(C(F)F)CC2)c2ccc(Cl)c(-n3ncnc3C(F)F)c2)C1=O [Compound 179] : ≥ 6.58 h

* * *

assay: Liver microsomal stability, human liver microsomes; conditions: human, liver microsomes
# reported half-life at 1 uM; entries follow

C[C@H](C(=O)NC[C@H](c1ccc(Cl)c(-n2ncnc2C(F)F)c1)N1C(=N)N[C@](CC(C)(C)C(F)(F)F)(c2ccc(-c3cnn(C4CC4)n3)cc2)C1=O)C(F)(F)F [Compound 389] = ≥ 6.58 h

Reported half-life at 1 uM of Cn1ccc(-c2ccc([C@@]3(CC(C)(C)C)NC(=N)N([C@H](COC(=O)NC4CC4(F)F)c4ccc(Cl)c(-n5ncnc5C(F)F)c4)C3=O)cc2F)n1 (stereo partly drawn) [Compound 295] : ≥ 6.58 h

Reported half-life at 1 uM of CC(C)(C)C[C@]1(c2ccc3nc(-c4cnn(C(F)F)c4)ccc3c2)NC(=N)N([C@H](COC(=O)NC2(C(F)(F)F)CC2)c2ccc(Cl)c(-n3ncnc3C(F)F)c2)C1=O [Compound 350] : ≥ 6.58 h

* * *

Target: recombinant HIV protease (Human immunodeficiency virus type 1 group M subtype B (isolate HXB2) (HIV-1))
Test: biochemical
Format: biochemical
Settings: recombinant HIV protease, fluorogenic enzymatic assay; read-out: HIV PI IC50
Method: HIV Protease Enzyme Inhibition (PI) Activity Inhibitor potency against HIV protease was measured using an enzymatic assay with a fluorogenic readout. To a reaction buffer containing 100 mM ammonium acetate at pH 5.3, 100 mM NaCl, 1 mM EDTA, 1 mM DTT, 0.25 mg/mL BSA and 1% DMSO were added 10 nM of recombinant HIV protease (concentration based on protein monomer) and test compound at one of various concentrations. […] The total volume of the assay solution was 100 μL. […]
# reported IC50; entries follow
Write it as a number; the unit nM goes unstated.

CC(C)(C)C[C@]1(c2ccc(-c3cnn(C4CC4)c3)cc2)NC(=N)N([C@H](COC(=O)NC2(C(F)(F)F)CC2)c2ccc(Cl)c(-c3ncnn3C(F)F)c2)C1=O = 2.6

Please look at the following molecule next.
Reported IC50 of `CC(C)(C)C[C@]1(c2ccc(-c3cnn(C(F)F)c3)cc2)NC(=N)N([C@H](COC(=O)NC2(C(F)(F)F)CC2)c2ccc(F)c(-n3ncnc3C(F)F)c2)C1=O` : 3.5
